Target: T1, CRBN, Q96SW2;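 also: pooled lentiviral library of zinc finger degron-EGFP fusions in mCherry-positive Jurkat cells, FACS-sorted after compound exposure, with degron abundance counted by next-generation sequencing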
T1 chain: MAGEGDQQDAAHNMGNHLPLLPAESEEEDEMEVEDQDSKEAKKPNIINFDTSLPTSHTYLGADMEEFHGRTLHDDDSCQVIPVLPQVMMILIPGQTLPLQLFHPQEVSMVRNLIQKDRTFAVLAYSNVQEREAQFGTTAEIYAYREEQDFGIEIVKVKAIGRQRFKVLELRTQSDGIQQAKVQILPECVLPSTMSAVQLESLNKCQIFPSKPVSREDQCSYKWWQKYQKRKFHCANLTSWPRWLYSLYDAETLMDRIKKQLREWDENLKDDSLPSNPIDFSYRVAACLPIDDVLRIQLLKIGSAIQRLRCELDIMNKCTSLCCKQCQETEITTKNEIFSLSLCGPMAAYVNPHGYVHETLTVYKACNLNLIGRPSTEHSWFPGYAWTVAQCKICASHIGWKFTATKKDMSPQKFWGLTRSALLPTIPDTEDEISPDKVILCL
Experiment: log2 fold change of degron read counts, EGFP-low vs EGFP+ sorted cells (limma voom), compound-induced degradation; higher = more compound-induced degradation of the degron-EGFP fusion; degrons are variants of IKZF1/3 zinc finger 2; compound dose not given here
Settings: Jurkat; 18 h; compound: compound 19 (5-tert-butyl-thalidomide)
In all, about 8,300 sequences were measured (“log2 fold change of degron read counts, EGFP-low vs EGFP+ sorted cells (limma voom), compound-induced degradation”: median about -1.1, highest 2% from about 3.2 on). This is one part of a sample in which the highest values are shown more often than they occur.
Item-by-item account of log2 fold change of degron read counts
PROPERTY_LABEL: log2 fold change of degron read counts

SEQUENCE_ENTRY	VALUE_OBSERVED
FQCDQCGALFTQKGNLLRHIKL [46F_47Q_49D_50Q_52G_53A_54L_55F_67L_, Q9UKT9]	-3.22
FICNQCGACFTQKGNLLRHIKL [46F_47I_49N_50Q_52G_53A_54C_55F_67L_, Q9UKT9]	-2.25
FRCDVCGALFTQKGNLLRHIKL [46F_47R_49D_50V_52G_53A_54L_55F_67L_, Q9UKT9]	-2.19
FYCEQCGAEFTQKGNLLRHIKL [46F_47Y_49E_50Q_52G_53A_54E_55F_67L_, Q9UKT9]	-0.252
FICDVCGAWFTQKGNLLRHIKL [46F_47I_49D_50V_52G_53A_54W_55F_67L_, Q9UKT9]	-2.55
FNCEICGAMFTQKGNLLRHIKL [46F_47N_49E_50I_52G_53A_54M_55F_67L_, Q9UKT9]	1.65
LACEICGFFCTQKGNLLRHIKL [46L_47A_49E_50I_52G_53F_54F_55C_67L_, Q9UKT9]	1.23
FSCDVCGAEFTQKGNLLRHIKL [46F_47S_49D_50V_52G_53A_54E_55F_67L_, Q9UKT9]	-0.733
FDCNVCGAPFTQKGNLLRHIKL [46F_47D_49N_50V_52G_53A_54P_55F_67L_, Q9UKT9]	-1.08
FGCEICGAMFTQKGNLLRHIKL [46F_47G_49E_50I_52G_53A_54M_55F_67L_, Q9UKT9]	3
FACNICGAWFTQKGNLLRHIKL [46F_47A_49N_50I_52G_53A_54W_55F_67L_, Q9UKT9]	-0.878
FFCEICGAMFTQKGNLLRHIKL [46F_47F_49E_50I_52G_53A_54M_55F_67L_, Q9UKT9]	3.34
FHCNQCGAVFTQKGNLLRHIKL [46F_47H_49N_50Q_52G_53A_54V_55F_67L_, Q9UKT9]	-1.89
FVCNQCGHYFTQKGNLLRHIKL [46F_47V_49N_50Q_52G_53H_54Y_55F_67L_, Q9UKT9]	-3.08
FCCDICGAFFTQKGNLLRHIKL [46F_47C_49D_50I_52G_53A_54F_55F_67L_, Q9UKT9]	-0.849
